Assign cytotoxicity at 10 µM to each entry below.
test.method.notes: Toxicity liver stage against HepG2, at 10uM
Format: cell-based
Design: test concentration 10 uM, cell line HepG2-A16-CD81EGFP
test.settings: human, HepG2-A16-CD81EGFP cells; read-out: INHIBITION
One number for each entry, in %.

Give measured cytotoxicity at 10 µM for every item shown.
1. COc1cc(N2CC3(CCN(c4ncccn4)C3)C2)ncn1
2. O=C(Cn1ccc2ccccc21)N1CCC(Oc2ncccc2Br)CC1
3. CCCN(C(=O)CN1CCn2c(nnc2C2CC2)C1)C1=CCCCC1

Given back:
9.79
4.51
6.19

* * *

test.method.notes: Toxicity liver stage against HepG2, at 10uM
Type: cell-based
Set-up: test concentration 10 uM, cell line HepG2-A16-CD81EGFP
test.settings: human, HepG2-A16-CD81EGFP cells; read-out: INHIBITION
readout.name: cytotoxicity at 10 µM (%)
Numbers only, in %.

1) Cc1c(C)n2c(SCC(=O)N3CCCCC3)nnc2[nH]c1=O: 3.33

Give measured cytotoxicity at 10 µM for every item shown.
1. CC(C)(C)c1nnc(CN2CCOC(Cn3cncn3)C2)o1 (centres undefined)
2. Cc1ccc(CN2CC[C@@H]3CN(S(C)(=O)=O)CCO[C@@H]3C2)o1
3. COCCn1cnnc1C1CCCN(C(C)C)C1 (centres undefined)
4. O=C(Nc1cnccn1)[C@@H]1CCO[C@@H]2CCN(Cc3ccsc3)C[C@@H]21
5. COC(=O)c1sc(C(F)(F)F)cc1OC
6. Cc1nsc(NC2CCOC3(CCCCC3)C2)n1 (centres undefined)

Given back:
[-1.5, 8.76, -27.6, -77.1, 4.69, 5]

Give measured cytotoxicity at 10 µM for every item shown.
1. Cc1ncc(Cl)c(C(=O)N2CCCC(n3nc(C)nc3C)C2)n1 (centres undefined)
2. O=C(c1cccs1)N1CCC(Cn2nc(-c3ccco3)ccc2=O)CC1
3. O=c1ccc2c([nH]1)CCC(NCc1ccncc1)C2 (centres undefined)
4. COCCn1cnc2ccc(NC(=O)c3ccccn3)cc2c1=O
5. O=S(=O)(NCC1(O)CCCC1)c1ccccc1Br
6. Cc1nc(-c2cccnc2)ncc1C(=O)N1CCCC(N(C)C)CC1 (centres undefined)
7. CN(CCc1cn[nH]c1)C(=O)C1CC(=O)N(Cc2cccnc2)C1 (centres undefined)
8. Cc1ccc(CC2COCCN(Cc3ccccc3)C2)nc1 (centres undefined)

Given back:
1. -0.426
2. -2.21
3. -6.22
4. -6.81
5. -3.87
6. 9.81
7. -0.812
8. 8.3

* * *

Assign cytotoxicity at 10 µM to each entry below.
test.method.notes: Toxicity liver stage against HepG2, at 10uM
Assay type: cell-based
Design: test concentration 10 uM, cell line HepG2-A16-CD81EGFP
test.settings: human, HepG2-A16-CD81EGFP cells; read-out: INHIBITION
Give bare numbers, in %.

1. Cc1ncc(C(=O)N2C[C@@H]3CC[C@H]2CN(S(=O)(=O)N(C)C)C3)c(C)n1: 16.9
2. CCc1ccc(CN(C)C(=O)C(c2ccccc2F)N(C)C)nc1 (stereo unspecified): 4.03
3. O=C(NCC1CC1)[C@@H]1CC[C@@H]2[C@@H](CCN2CCOCc2ccccc2)O1: -112
4. Cc1cc(CN2CCc3nc(-c4ccncc4)nc(O)c3CC2)c(C)s1: 3.27
5. CN(Cc1cccc(C(=O)Nc2ccnn2C)c1)CC1(C)COC1: -5.84

Give measured cytotoxicity at 10 µM for every item shown.
1. N#Cc1ccc(CNCCc2cc(F)cc3c2OCOC3)cc1
2. CN(C)CCNC(=O)c1noc2c1CN(C(=O)N(C)C)CC2
3. COc1cccc(CN2CCCC2Cn2nc(C)nc2C)c1 (stereo unspecified)
4. N#Cc1ccsc1NC(=O)CN1CCn2c(nnc2C2CC2)C1
5. CN(Cc1cnn(C)c1)Cc1nc(Cc2cccc(Cl)c2)no1
6. CC(NC(=O)c1ccsc1)c1ccc2c(c1)NC(=O)CO2 (stereo unspecified)

Given back:
1: 6.58; 2: 10.6; 3: 0.665; 4: -14.5; 5: 6.53; 6: -11.7

* * *

Assign cytotoxicity at 10 µM to each entry below.
test.method.notes: Toxicity liver stage against HepG2, at 10uM
Format: cell-based
Set-up: test concentration 10 uM, cell line HepG2-A16-CD81EGFP
test.settings: human, HepG2-A16-CD81EGFP cells; read-out: INHIBITION
One number for each entry, in %.

1. O=C1CC[C@H](C(=O)N(Cc2cccc(Br)c2)C2CC2)N1: 7.24
2. O=C(Cc1ccsc1)N1CCCC(CNS(=O)(=O)Cc2ccccc2)C1 (stereo unspecified): 4.24
3. CCc1nccn1C1CCCN(C(=O)c2cnn3ccc(C)nc23)C1 (stereo unspecified): -9.68
4. CC(C)(C)c1cn2nc(N3CCCCC3Cn3cncn3)sc2n1 (stereo unspecified): -4.61
5. Cc1ccc(CC(=O)N2CCOC(c3nc(C(C)(C)C)n[nH]3)C2)cn1 (stereo unspecified): -5.96
6. CC(C)N1c2sc(-c3ccccc3)nc2CC1C(=O)NCCCO (stereo unspecified): 7.8
7. O=C(Nc1cccc(F)c1)NC1CCN(Cc2ccncc2)CC1: -9.01
8. CC(=O)N1CCN(C(=O)c2sc(-c3ccccc3F)nc2C)CC1: -3.3

Give measured cytotoxicity at 10 µM for every item shown.
1. CCC1CCCN(C(=O)NCc2cccnc2-n2cccn2)C1 (stereo unspecified)
2. CNC(=O)CN1CCOCC2(CN(CCC(F)(F)F)CCO2)C1 (stereo unspecified)
3. CN(C)C[C@]12COC[C@H]1CN(C(=O)CCc1ccccc1)C2

Given back:
[-0.734, 3.59, -1.89]

* * *

Assign cytotoxicity at 10 µM to each entry below.
test.method.notes: Toxicity liver stage against HepG2, at 10uM
Assay type: cell-based
Set-up: test concentration 10 uM, cell line HepG2-A16-CD81EGFP
test.settings: human, HepG2-A16-CD81EGFP cells; read-out: INHIBITION
Give bare numbers, in %.

Give measured cytotoxicity at 10 µM for every item shown.
1. Cc1cc(C)c2c(c1)C1(CC(=O)Nc3c1cnn3C(C)C)C(=O)N2 (stereo not drawn)
2. NC(=O)C1Cc2ccccc2CN1CCC(=O)N1CCc2ccccc21 (stereo not drawn)
3. CN1CCC(NC(=O)NCc2csc(Br)c2)CC1
4. CCCS(=O)(=O)N1C[C@H]2OC(=O)N(CCc3cccc(Cl)c3)[C@H]2C1
5. Cc1n[nH]c(C)c1C1CCCN1C(=O)CNC(=O)C(C)(C)C (stereo not drawn)

Given back:
1: -2.51; 2: -4.23; 3: -8.92; 4: -2.12; 5: -29

Give measured cytotoxicity at 10 µM for every item shown.
1. O=C(O)c1ccnc(-c2ccnc(COc3ccc(Cl)cc3)n2)c1
2. CCC(CC)C(=O)NCC1(NC(C)c2ccccc2)CCOCC1 (stereo not drawn)
3. CCOC(=O)CC1CCCCN1C(=O)CCc1cc(Cl)no1 (stereo not drawn)

Given back:
1: -6.67; 2: 14.7; 3: 6.95

Give measured cytotoxicity at 10 µM for every item shown.
1. CN(C)S(=O)(=O)N1CC[C@H]2OCC[C@@]2(COc2cccnc2)C1
2. CCS(=O)(=O)N1CCC(NC(=O)c2cc3ccccc3cc2O)CC1

Given back:
[11.2, -2.1]

* * *

test.method.notes: Toxicity liver stage against HepG2, at 10uM
Assay type: cell-based
Design: test concentration 10 uM, cell line HepG2-A16-CD81EGFP
test.settings: human, HepG2-A16-CD81EGFP cells; read-out: INHIBITION
Assign cytotoxicity at 10 µM to each entry below.
Give bare numbers, in %.

Guide cases for cytotoxicity at 10 µM, answers given:
1) O=C(c1ccc[nH]1)N1CCOC2(COCCN(c3cncnc3)C2)C1 (stereo unspecified): 7.7
2) CC(c1cccc(S(N)(=O)=O)c1)N(C)CCOc1ccccc1 (stereo unspecified): -3.83
3) COCCN1CCCC1(C)c1nc(C)cc(N)n1 (stereo unspecified): -3.73
4) O=C(c1cocn1)N1C[C@@H]2CN(Cc3ccco3)CCO[C@@H]2C1: 5.24
5) CC(C)n1cnnc1CN(C)CC1CCOC1 (stereo unspecified): 11.3
6) CCC(CO)NCc1ccc(-c2ccc(Cl)cc2)o1 (stereo unspecified): 5.24

Give measured cytotoxicity at 10 µM for every item shown.
1. CCCS(=O)(=O)N1CC(=O)N(CCCc2ccccc2)CC(O)C1 (stereo unspecified)
2. c1cncc(CN2C[C@H]3CCC[C@@H](CNc4cnccn4)[C@H]3C2)c1
3. CC[C@H]1CN2CC[C@H]1C[C@@H]2CNC(=O)Nc1ccccc1
4. O=C(NCCNS(=O)(=O)N1CCCCCC1)c1ncccc1O

Given back:
[-17, -2.1, -0.989, -6.11]

Asked: Quick one: cytotoxicity at 10 µM for CCN(Cc1cc(Br)ccc1F)C(=O)C(C)NC(N)=O (stereo unspecified) ?
Given back: 11.6
